Each record here notes measured EC50.
Biological target: T1, human CD63 (human, UniProt P08962 2-238)
T1 construct: stably transfected in NIH3T3/hCD63; The cell line is named under assay; also called hCD63
T1 sequence: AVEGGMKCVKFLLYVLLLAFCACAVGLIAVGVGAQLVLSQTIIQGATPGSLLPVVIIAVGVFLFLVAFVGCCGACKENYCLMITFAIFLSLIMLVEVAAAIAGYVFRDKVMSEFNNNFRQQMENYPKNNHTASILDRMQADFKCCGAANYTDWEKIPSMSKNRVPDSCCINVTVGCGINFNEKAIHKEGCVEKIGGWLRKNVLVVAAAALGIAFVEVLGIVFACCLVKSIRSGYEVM
Assay: ECL, NIH3T3/hCD63 cells
Write down the numeric answer in nM and omit the unit.

INSERT INTO measurements (binder, readoutname, reportedvalue) VALUES
  ('H2M12454N (antibody, V domains shown, also called H2bM12454N) VH: QVQLVESGGGLVKPGGSLRLSCAVSGFTYTDYFMNWIRQAPGKGLEWVSYISNSGAIKYYADSVKGRFTISRDNAKNSLYLQMNGLRADDTAVYYCVRDPRSYYGFDYWGQGTLVTVSS VL: DIQMTQSPSSLSASVGDRVTITCRASQSISNFLNWYQQKPGKAPRLLIYGASNLQSGVPSRFSGGGSGTDFTLTISSLQPADFATYYCQQSFSNPPVTFGQGTRLEIN', 'EC50', 0.32),
  ('H1M12362N (antibody, V domains shown) VH: QVQLVESGGGLVKPGGSLRLSCAASGFIFSDYYINWIRQAPGKGLEWVSYTSSSGSTTYYEDSVKGRFTMSRDNARNLVYLQMNSLRAEDTAAYYCVRDLRYNDGLDVWGQGTTVTVSS VL: DILLTQSPSSLSASVGDRVTITCRASQSIRTYLNWYQQKPGRAPKLLVYAASSLQSGVPSRFSGSGSGTDFTLTISSLQPEDFATYFCQQSYDNPPITFGQGTRLAIK', 'EC50', 0.63);

Query string: Reported EC50 for H2M13022N (antibody, V domains shown, also called H2bM13022N) VH: QVQLVESGGGLVQPGGSLRLSCAASGFIFGDYYINWIRQAPGKGLQWVSYTSSSGSTTYYEDSVKGRFTMSRDNAKNLVYLQMNSLRAEDTAAYYCVRDLRYNDGLDVWGQGTTVIVSS VL: DILLTQSPSSLSAFVGDRVTITCRASQNIRTYLNWYQQKPGRAPKLLVYAASTLQSGVPSRFSGSGSGTDFTLTISSLQPEDFASYFCQQSYDNPPITFGQGTRLAIK : what is it?
Result string: 0.45

Query string: Reported EC50 for H2M12450N (antibody, V domains shown, also called H2aM12450N; mAb12450) VH: QVQLQESGPKVVKPSETLSLTCTVSGGSISSYYWNWIRQSPGKGLEWIGYTKRGYTDYNPSLRSRVTISEDTSKNQFSLRISSVTAADTAVYYCAQMGWGSHAFDMWGQGTMVAVSS VL: EIVLTQSPGTLSLSPGERATLSCRASQSVNSRYLAWYQQKPGQAPRLLIYGASSRATGIPDRCSGSGSGTDFTLTISRLEPEDFAVYYCQQYGSSPWTFGQGTKVEIK : what is it?
Result string: 0.97

# credit: patent US20210079109A1
